- Protocol Notes: in vitro
- Condition Info: human, hela cells, % viability
Hi! Just check whether viability at 28.5 h, 10 µM is below 90%. Below gives 1 (yes), equal or above gives 0 (no).

Cc1nc(C2CCCN(C(=O)CCn3cccn3)C2)c2sccn12 (centres unmarked): 1 (yes)
CC(=O)Nc1ccc(N2C(=O)CSC2c2ccccc2[N+](=O)[O-])cc1 (centres unmarked): 0 (no)
COc1ccc(/C=C/C(=O)O)cc1S(=O)(=O)Nc1ccc(C(=O)O)cc1: 0 (no)
Cc1nn(C)c(=O)c2c(C)noc12: 0 (no)
O=C(c1cc(C(F)(F)F)cc(C(F)(F)F)c1)N1CCC(O)(c2ccc(Cl)cc2)CC1: 0 (no)
O=C(O)COc1ccccc1/C=N\N1CCN(Cc2ccccc2Cl)CC1: 0 (no)

Strictly below 90% in viability at 28.5 h, 10 µM? COc1ccc(CNCc2ccc(Cl)cc2)cc1OC
0 (no)

Strictly below 90% in viability at 28.5 h, 10 µM? CCCC(CCC)NC(=O)c1ccc(-n2nc(C(=O)OCC)c(Cl)c2C)cc1
0 (no)

Strictly below 90% in viability at 28.5 h, 10 µM? COc1cccc(CN2CC3CCCN3C[C@H]2C)c1 (some centres unmarked)
0 (no)

Strictly below 90% in viability at 28.5 h, 10 µM? Cc1cccnc1NC(=O)COc1ccc(Cl)cc1Cl
1 (yes)

Strictly below 90% in viability at 28.5 h, 10 µM? CCc1nc2c(OCC3CCCCC3)cccn2c1N(C=O)Cc1ccc(OC)cc1
0 (no)

Strictly below 90% in viability at 28.5 h, 10 µM? O=c1[nH]c2ncc(-c3ccco3)nc2n1Cc1ccc(F)c(Cl)c1
0 (no)

Strictly below 90% in viability at 28.5 h, 10 µM? COCCCNC(=O)c1cnn2c(C)c(Cc3cccc(F)c3)c(C)nc12
0 (no)

Strictly below 90% in viability at 28.5 h, 10 µM? CCCCOc1ccc(NC(=O)Nc2cc3cccnc3c(Br)n2)cc1
1 (yes)

Strictly below 90% in viability at 28.5 h, 10 µM? Cc1c(Cl)cccc1NC(=S)NNC(=O)C(C)Oc1ccc(F)cc1F (centres unmarked)
0 (no)

###

- Protocol Notes: in vitro
- Condition Info: human, hela cells, % viability
Task for the reader: assign each of the following molecules its reported viability at 28.5 h, 10 µM.
Answers are plain numbers, in %.

c1cnn(CC2CCCN2c2ncnc3sc4c(c23)CCNC4)c1 (centres unmarked) [CBK307490]: 85.9
CCc1c(C(=O)NC2CCCOC2)[nH]c2ccc(F)cc12 (centres unmarked) [CBK283115]: 97.5
O=C(CN1C(=O)S/C(=C\c2ccc(Cl)cc2)C1=O)Nc1cc([N+](=O)[O-])ccc1O [CBK262396]: 90.4
C(=C\c1nccnc1OCc1cccs1)/c1ccccc1 [CBK106883]: 112
COc1cccc(C2(NC(=O)c3c(C)noc3C)CCCC2)c1 [CBK283659]: 98.1

Dear colleague, could you send me viability at 28.5 h, 10 µM for each of the items below? Thanks.
1. O=C(COc1ccc2c(c1)OCO2)Nc1ccccn1 [CBK288148]
2. CC1CCCCN1Cc1nc2c(c(=O)n(C)c(=O)n2C)n1Cc1ccc(Br)cc1 (centres unmarked) [CBK269184]
3. O=C1Nc2ccccc2Oc2ccc(S(=O)(=O)N3CCOCC3)cc21 [CBK269807]
4. Cc1ccc(NC(=O)C2CCCCC2C(=O)O)cc1Cl (centres unmarked) [CBK286938]

1. 86.6
2. 95.3
3. 75.5
4. 99.9
